Experiment: NCI Yeast Anticancer Drug Screen. Data for the mlh1 rad18 strain (AID 175)
Conditions: S. cerevisiae mlh1 rad18 strain growth inhibition; at 50.0 µM; active compounds read high
The panel holds about 79,000 compounds, 15% with a hit somewhere; the sample as a whole holds those more often.
Result Type: growth inhibition (%)

                                    compound        result_type  value
 0  CN1CN(c2ccccc2)C2(CCN(CCc3csc4ccccc34)CC2)C1=O  growth inhibition   19.4
 1              COP(=O)(CC(=O)CCCCC1OCCO1)OC  growth inhibition  -4.85
 2  C=C1C(=O)O[C@@H]2C[C@@H](C)[C@@H]3C=CC(=O)[C@@]3(C)[C@@H](O)[C@H]12  growth inhibition   32.2
 3  O=P1(N2CCOCC2)OC(c2ccccc2)=CCN1c1ccc(Cl)cc1 (stereo not drawn)  growth inhibition   6.55
 4                 O=c1[nH]cc(CCl)c(=O)[nH]1  growth inhibition  -0.15
 5  CO[C](=[W])c1ccccc1.[C-]#[O+].[C-]#[O+].[C-]#[O+].[C-]#[O+].[C-]#[O+]  growth inhibition   -4.1
 6     Cn1c(O)c(C(=O)NC2CCCCC2)c(=O)n(C)c1=S  growth inhibition   13.1
 7  ClC1CCCCC1[Se](Cl)(Cl)C1CCCCC1Cl (stereo not drawn)  growth inhibition   98.8
 8  NC(Cc1cnc[nH]1)C(=O)NC(Cc1cnc[nH]1)C(=O)O (stereo not drawn)  growth inhibition    7.6
 9                     C=C(C)CCP(=S)(OCC)OCC  growth inhibition  -3.45
10                           CCCCOS(C)(=O)=O  growth inhibition   29.4
11                 C(#CCN1CCCCCC1)CN1CCCCCC1  growth inhibition   -2.7
12  Cc1ccc2c(c1)N(CCN(CCCl)CCCl)c1c(ccc3ccccc13)S2  growth inhibition   91.9
13  Nc1nc(N)c(-c2ccc(Cl)c(Cl)c2)c(COc2ccc(CNC(=O)Nc3cccc(S(=O)(=O)F)c3)cc2Cl)n1  growth inhibition   66.4
14  COc1ccc2c3c1OC1C(Oc4nnnn4-c4ccccc4)C=CC4C(C2)N(C)CCC341 (stereo not drawn)  growth inhibition   12.5
15  C=C1C(C)C2C(Cc3ccccc3)NC(=O)C23C(OC(C)=O)/C=C/C(C)(O)CC(C)C/C=C/C3C1O (stereo not drawn)  growth inhibition   89.4
16  [C-]#[N+]C1CCCCC1.[C-]#[N+]C1CCCCC1.[Ni].[S-]c1ccccc1.[S-]c1ccccc1  growth inhibition   36.6
17  CCOC(=O)C(Cc1ccc(N(CCCl)CCCl)cc1)NC(=O)C(N)CO (stereo not drawn)  growth inhibition    7.5
18                       O=C(O)CCC(=O)O.[Ni]  growth inhibition  -18.3
19  Cc1c2n(c3ccccc13)CC1CON(C)C21 (stereo not drawn)  growth inhibition  -19.9
20                       O=P1(C(Cl)Cl)OCCCO1  growth inhibition  -0.15
21  O=c1[nH]c(O)c(N=Nc2ccc([N+](=O)[O-])cc2[N+](=O)[O-])c(=O)[nH]1  growth inhibition   7.35
22  CCC(C)Sc1ccccc1OC(=O)NC (stereo not drawn)  growth inhibition   24.1
23                 O=C1CCC(=O)N1[N+](=O)[O-]  growth inhibition    -16
24                           NCC#CCNCCCN1CC1  growth inhibition  -41.5
25                 Cn1c(=O)n(C)c(=O)n(C)c1=O  growth inhibition  -12.6
26  NS(=O)(=O)c1ccc([As]=O)cc1 (stereo not drawn)  growth inhibition  -37.8
27  CNP1(=O)OC(c2ccccc2)=CCN1CCCl (stereo not drawn)  growth inhibition   71.2
28  CC12CCC(O)CC1CCC1C2CCC2(C)C(C3=CC(=O)OC3)CCC12 (stereo not drawn)  growth inhibition   42.5
29  O=C(OCC(CCl)OC(=O)C(Cl)(Cl)Cl)C(Cl)(Cl)Cl (stereo not drawn)  growth inhibition   54.8
30  CCC1(Sc2ncnc3c2ncn3C2OC(CO)C(O)C2O)C(=O)NC(=O)NC1=O (stereo not drawn)  growth inhibition   -7.2
31  C[CH2][Pb]([CH2]C)([CH2]C)[O]C(=O)COc1ccc(Cl)cc1Cl  growth inhibition     97
32  CCOC(=O)C1=C(C)/C(=C/c2[n-]c(C)c(C(=O)OCC)c2C)N=C1C.CCOC(=O)C1=C(C)/C(=C/c2[n-]c(C)c(C(=O)OCC)c2C)N=C1C.[Zn+2]  growth inhibition   98.2
33                    CC[PH+](CC)CC.[Cl][Au]  growth inhibition   90.8
34                   Nc1cc2[nH]cnc2c([Se])n1  growth inhibition   83.8
35  O=[N+]([O-])/C=C/c1ccc(Cl)cc1[N+](=O)[O-]  growth inhibition   99.2
36                            CCCC(=O)O.[Ni]  growth inhibition   -2.7
37  CN1CCN(Cc2ccccc2)CC1CC#N (stereo not drawn)  growth inhibition  -30.9
38  CN1CNC2C(=O)CCC2c2ccccc21 (stereo not drawn)  growth inhibition   -9.1
39    CCC[CH2][Sn]1([CH2]CCC)[O]c2ccccc2[O]1  growth inhibition   89.1
40  CCC[CH2][Sn]1([CH2]CCC)[O]CC(CN2CCOCC2)[O]1 (stereo not drawn)  growth inhibition   88.8
41  Cc1cccc(NC(=O)C(=O)C2C(=O)NC(=O)NC2=O)c1C  growth inhibition   12.2
42  COC1=CC(=O)OC(CCc2ccccc2)C1 (stereo not drawn)  growth inhibition  -4.85

---

Assay: NCI Yeast Anticancer Drug Screen. Data for the cln2 rad14 strain (AID 165);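 further: 0% = growth equal to vehicle treated cultures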
Settings: S. cerevisiae cln2 rad14 strain, at 50.0 µM (retest, dose inferred, filed as 5.0), active compounds read high
This is part of a sample that, as a whole, favours compounds with a hit. Of some 79,000 tested, about 15% had one in any assay.
Below, each entry is listed with its recorded growth inhibition.

Compound	growth inhibition [%]
O=P(c1ccccc1)(c1ccccc1)c1ccccc1.[Cl][Sn]([c]1ccccc1)([c]1ccccc1)[c]1ccccc1	98
CC1=C2C(=CC(C)(C)[C@@H]2O)C(=O)[C@](C)(O)C12CC2	90
S=c1[nH]c2ccccc2s1.[Pb]	-11
O=C(CCl)OCc1ccccc1	10
COC(=O)[CH2][Sn]([CH2]C(=O)OC)([CH]1CCCCC1)[CH]1CCCCC1	33
O=C(N/N=C/c1cc(Br)cc(Br)c1[O-])c1ccccc1O.O=C(N/N=C/c1cc(Br)cc(Br)c1[O-])c1ccccc1O.[Mn+2]	90
O=C1C=C(N2CC2)C(=O)C=C1N1CC1	25
Cc1cc(N(CCCl)CCCl)ccc1C1N(Cc2ccc(N(CCCl)CCCl)cc2Cl)CCCN1Cc1ccc(N(CCCl)CCCl)cc1Cl	93
CC1CCCC[N-]1.CC1CCCC[N-]1.N#C[S-].N#C[S-].[Cd] (stereo unspecified)	69
O=[N+]([O-])c1ccc(CS(=O)(=O)C(Cl)(Cl)Cl)o1	99
CC(=O)c1cc(CN(CCCl)CCCl)c(O)c(CN(CCCl)CCCl)c1O	6
c1cc[c]([Pb]([S]c2nc3ccccc3[nH]2)([c]2ccccc2)[c]2ccccc2)cc1	99
CCC[CH2][Sn]1([CH2]CCC)[O]C(=O)CN=Cc2ccccc2[O]1	91
Cc1ccc(NCc2ccccc2)cc1[As](=O)(O)O	94
O=C(CBr)c1ccncc1	99
O=[N+]([O-])c1cc([N+](=O)[O-])c(Cl)s1	98
COc1ccccc1C(Cc1ccc(N2C(N)=NC(N)=NC2(C)C)cc1)C(=O)Nc1ccc(S(=O)(=O)F)cc1 (stereo unspecified)	-5
CCC[CH2][Sn]([CH2]CCC)([O]C(=O)CCC(C)=O)[O]C(=O)CCC(C)=O	99
Cc1c2ccncc2c(CN(CCCl)CCCl)c2c3ccccc3n(C)c12	96
COc1cc2c(cc1OC)C(OC)N(C)c1c-2ccc2cc3c(cc12)OCO3 (stereo unspecified)	33
CCCCCCCCCCCCCCCCCC[N+](C)(C)C (tested in a mixture with another compound)	98
COC(=O)C1=C(C(=O)OC)C2(C)OC1c1ccccc12 (stereo unspecified)	92
Cc1cc(CCN)c(C)c2c1oc1ccccc12	98
OC1CCCC2CCCNC12 (stereo unspecified)	98
Nc1ccc(C(=O)O)c(C(=O)O)c1.[Cl][Sn]([Cl])([Cl])[Cl]	-21
Nc1nc(N)c(-c2ccc(Cl)c(Cl)c2)c(CCc2ccc(CNC(=O)c3cccc(S(=O)(=O)F)c3)cc2)n1	97
CC(Cc1ccc2c(c1)OCO2)NN (stereo unspecified)	-8
O=[N+]([O-])/C=C\c1ccccc1	99
COC(C)(C)[CH]([Hg][Cl])n1ccccc1=O (stereo unspecified)	99
[CH3][Sn]([CH3])([S]CCS(=O)(=O)O)[S]CCS(=O)(=O)O	-12
C[SH+]c1ccccc1N=Cc1ccccn1.C[SH+]c1ccccc1N=Cc1ccccn1.[Ni+2].[O-][Cl+3]([O-])([O-])[O-]	7
C/C(=N\NC(N)=O)C(CN1CCCCC1)C(c1ccccc1)c1c(O)c2ccccc2oc1=O (stereo unspecified)	0
CC(=O)OCC12CC(O)C(C)=CC1OC1C(O)C(OC(C)=O)C2(C)C12CO2 (stereo unspecified)	39
CC(CCC/C=C/CCCN(C)C(=N)N)CC(C)C1OC(=O)C(C)C(O)/C=C/C(C)C(O)C(C)C(O)C(C)C(O)CCCC(O)CC2(O)OC(CC(OC(=O)CC(=O)O)CC(O)CC(O)C(C)C(O)/C=C/C=C/C1C)CC(O)C2O (stereo unspecified)	99
COC1(O[C@H]2CC[C@H]3[C@@H]4CCC5=CC(=O)CC[C@]5(C)[C@H]4CC[C@]23C)CCCCC1	-4
CC(C)CCC1(CCSC(=O)S)C(=O)NC(=O)NC1=O	21
